LC retention time reference
Assay: RP, Waters ACQUITY UPLC HSS T3, 100 × 2.1 mm, 1.8 µm; A: water + 0.1% formic acid, pH 3; B: 30% methanol + 70% acetonitrile + 0.1% formic acid, pH 3; gradient (min/%B) 0.0/5 1.0/8 2.0/15 3.0/40 4.0/70 4.5/100 5.0/100 6.4/100 6.6/5.0 6.8/5.0 7.0/5.0
Settings: stereoisomer not certain
Field: numeric (min). Do not append units.

# annotated cases, reported LC retention time shown
- O=C(O)C(O)Cc1ccc(O)cc1 (stereo not drawn) [(DL)-p-hydroxyphenyllactic acid]: 2.66
- O=c1cc[nH]c(=O)[nH]1: 0.628
- CC(C)C(O)C(=O)O (configuration not stated) [2-hydroxyisovaleric acid]: 2.54
- C=CCS(=O)CC(N)C(=O)O (configuration not stated): 0.638
- CC12CCC(=O)C=C1CCC1C2CCC2(C)C(O)CCC12 (configuration not stated): 4.32

Query: Please give the measured LC retention time for this molecule: CCCCCCCCCCCCCCCC(=O)OCC(O)COP(=O)([O-])OCC[N+](C)(C)C (configuration not stated)
Response: 4.7

Query: Query (molecule): CN(C)CC(=O)O ; field requested: LC retention time
Response: 0.47

Query: # lookup: LC retention time of C=C(C)C1CC=C(C(=O)O)CC1 (configuration not stated)
Response: 3.81
